Each entry below lists one item and its recorded Y1 Cells IC50 value.
Target: T1, human ACTH 1-39 (human)
T1 peptide: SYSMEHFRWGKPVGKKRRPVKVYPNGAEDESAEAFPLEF
Test: cell-based or functional assay
The reply should be a number in nM, with the unit left off.

Below are worked cases with known answers.
[
  {
    "binder": "Ab9 (antibody, human IgG1, kappa, N297A, V domains shown, rabbit/human chimeric antibody, made in HEK-293) VH: QSVEESGGRLVTPGTPLTLTCTVSGFSLNSYAMSWVRQAPGEGLEWIGIISDSGRTYYASWAKGRFTISKTSTTVDLKITSPTTEDTATYFCAREPEYGYDDYGDWVSDLWGPGTLVTVSS VL: DVVMTQTPASVEAAVGGTVTIKCQASQSISSYLSWYQQKPGQPPKLLIYRASTLASGVPSRFKGSGSGTQFTLTISDLECADAATYYCQSYYYSSSITYRNAFGGGTEVVVKR",
    "Y1 Cells IC50 / nM": 3.47
  },
  {
    "binder": "Ab11 (antibody, human IgG1, kappa, N297A, V domains shown, rabbit/human chimeric antibody, made in HEK-293) VH: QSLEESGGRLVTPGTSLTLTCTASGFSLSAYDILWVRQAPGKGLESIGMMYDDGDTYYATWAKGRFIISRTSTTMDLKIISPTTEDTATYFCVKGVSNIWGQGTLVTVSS VL: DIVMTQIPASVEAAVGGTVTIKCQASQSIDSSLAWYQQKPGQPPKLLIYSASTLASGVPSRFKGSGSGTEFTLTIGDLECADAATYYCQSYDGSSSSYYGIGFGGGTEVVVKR",
    "Y1 Cells IC50 / nM": 1.53
  }
]

We now examine a further binder.
get_value(item= Ab1 (antibody, human IgG1, kappa, N297A, V domains shown, rabbit/human chimeric antibody, made in HEK-293) VH: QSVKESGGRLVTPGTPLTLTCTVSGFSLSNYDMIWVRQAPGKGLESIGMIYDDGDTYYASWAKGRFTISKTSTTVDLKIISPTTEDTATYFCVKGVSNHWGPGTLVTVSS VL: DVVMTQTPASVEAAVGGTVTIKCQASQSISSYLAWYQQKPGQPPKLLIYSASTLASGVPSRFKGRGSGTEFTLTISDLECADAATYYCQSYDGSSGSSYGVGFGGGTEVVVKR , readout=Y1 Cells IC50) returns 2.36
